This listing pairs molecules with measured inhibition.
# assayed-target: Epidermal growth factor receptor (Homo sapiens);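 note: EGFR inhibition read out with a Z-LYTE assay, enzyme source species not specified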
# Sequence (P00533 whole entry): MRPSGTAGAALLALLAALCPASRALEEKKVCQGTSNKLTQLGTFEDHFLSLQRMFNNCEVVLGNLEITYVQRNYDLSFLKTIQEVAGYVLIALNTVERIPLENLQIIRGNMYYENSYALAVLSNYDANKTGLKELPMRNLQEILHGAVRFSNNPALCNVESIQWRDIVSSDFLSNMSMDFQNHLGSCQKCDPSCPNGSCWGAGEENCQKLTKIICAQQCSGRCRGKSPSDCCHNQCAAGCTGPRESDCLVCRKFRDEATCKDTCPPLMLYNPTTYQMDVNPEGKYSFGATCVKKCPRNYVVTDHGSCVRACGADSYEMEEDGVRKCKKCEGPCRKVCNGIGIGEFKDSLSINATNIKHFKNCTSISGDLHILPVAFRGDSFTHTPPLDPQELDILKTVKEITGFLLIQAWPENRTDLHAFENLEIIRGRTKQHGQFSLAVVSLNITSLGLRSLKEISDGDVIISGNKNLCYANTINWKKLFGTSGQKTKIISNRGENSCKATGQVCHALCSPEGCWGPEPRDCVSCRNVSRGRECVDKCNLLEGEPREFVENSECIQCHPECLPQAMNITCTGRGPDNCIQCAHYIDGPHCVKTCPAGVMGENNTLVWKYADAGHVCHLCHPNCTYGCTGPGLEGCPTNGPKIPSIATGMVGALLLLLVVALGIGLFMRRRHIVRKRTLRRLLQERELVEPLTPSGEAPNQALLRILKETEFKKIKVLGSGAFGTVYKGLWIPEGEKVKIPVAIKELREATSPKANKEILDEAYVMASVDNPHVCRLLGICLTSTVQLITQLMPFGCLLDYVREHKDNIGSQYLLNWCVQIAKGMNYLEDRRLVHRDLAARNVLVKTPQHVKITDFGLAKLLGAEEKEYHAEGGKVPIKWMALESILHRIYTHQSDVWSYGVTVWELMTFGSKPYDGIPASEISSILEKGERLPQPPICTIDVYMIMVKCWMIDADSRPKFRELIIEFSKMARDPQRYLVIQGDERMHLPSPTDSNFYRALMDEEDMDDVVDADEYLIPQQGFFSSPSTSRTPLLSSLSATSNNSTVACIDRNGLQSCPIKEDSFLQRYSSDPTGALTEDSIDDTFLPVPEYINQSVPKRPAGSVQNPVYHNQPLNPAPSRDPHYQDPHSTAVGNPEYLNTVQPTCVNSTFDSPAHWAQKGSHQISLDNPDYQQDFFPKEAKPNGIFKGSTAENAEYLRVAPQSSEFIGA
# conditions: at 1 µM
experimental-endpoint: inhibition

[[record]]
molecule = "CC(Nc1ncnc2ncc(-c3cnn(C4CCNCC4)c3)cc12)c1c(Cl)ccc(F)c1Cl (centres undefined)"
assayed_target = "Epidermal growth factor receptor (Homo sapiens)"
experimental_endpoint = "inhibition"
readout_value = "17%"

[[record]]
molecule = "CC(Oc1nc(N)nc2ccc(-c3cnn(C4CCNCC4)c3)cc12)c1c(Cl)ccc(F)c1Cl (centres undefined)"
assayed_target = "Epidermal growth factor receptor (Homo sapiens)"
experimental_endpoint = "inhibition"
readout_value = "7%"

[[record]]
molecule = "CC(Nc1nc(N)nc2ccc(-c3cnn(C)c3)cc12)c1c(Cl)ccc(F)c1Cl (centres undefined)"
assayed_target = "Epidermal growth factor receptor (Homo sapiens)"
experimental_endpoint = "inhibition"
readout_value = "12%"

[[record]]
molecule = "COc1cccc(CNc2ncnc3ccc(-c4cnn(C)c4)cc23)c1"
assayed_target = "Epidermal growth factor receptor (Homo sapiens)"
experimental_endpoint = "inhibition"
readout_value = "67%"

[[record]]
molecule = "CC(Nc1ncnc2ncc(-c3cnn(C)c3)cc12)c1ccncc1 (centres undefined)"
assayed_target = "Epidermal growth factor receptor (Homo sapiens)"
experimental_endpoint = "inhibition"
readout_value = "0%"

[[record]]
molecule = "c1cnc2ccc(Nc3ncnc4ccc(-c5cnn(C6CCNCC6)c5)cc34)cc2c1"
assayed_target = "Epidermal growth factor receptor (Homo sapiens)"
experimental_endpoint = "inhibition"
readout_value = "96%"

[[record]]
molecule = "Cn1cc(-c2ccc3ncnc(Nc4ccc5ncccc5c4)c3c2)cn1"
assayed_target = "Epidermal growth factor receptor (Homo sapiens)"
experimental_endpoint = "inhibition"
readout_value = "101%"

[[record]]
molecule = "COc1cccc(CNc2ncnc3ncc(-c4cnn(C)c4)cc23)c1"
assayed_target = "Epidermal growth factor receptor (Homo sapiens)"
experimental_endpoint = "inhibition"
readout_value = "18%"

[[record]]
molecule = "Cn1cc(-c2cnc3ncnc(NCc4cccc([N+](=O)[O-])c4)c3c2)cn1"
assayed_target = "Epidermal growth factor receptor (Homo sapiens)"
experimental_endpoint = "inhibition"
readout_value = "30%"

[[record]]
molecule = "Cn1cc(-c2ccc3ncnc(Nc4ccc(F)c(Cl)c4)c3c2)cn1"
assayed_target = "Epidermal growth factor receptor (Homo sapiens)"
experimental_endpoint = "inhibition"
readout_value = "101%"

[[record]]
molecule = "CC(Nc1ncnc2ccc(-c3cnn(C4CCNCC4)c3)cc12)c1c(Cl)ccc(F)c1Cl (centres undefined)"
assayed_target = "Epidermal growth factor receptor (Homo sapiens)"
experimental_endpoint = "inhibition"
readout_value = "61%"

[[record]]
molecule = "Cn1cc(-c2ccc3ncnc(Oc4ccc5ncccc5c4)c3c2)cn1"
assayed_target = "Epidermal growth factor receptor (Homo sapiens)"
experimental_endpoint = "inhibition"
readout_value = "43%"

[[record]]
molecule = "CC(Nc1ncnc2ncc(-c3cnn(C)c3)cc12)c1c(Cl)ccc(F)c1Cl (centres undefined)"
assayed_target = "Epidermal growth factor receptor (Homo sapiens)"
experimental_endpoint = "inhibition"
readout_value = "9%"

[[record]]
molecule = "Fc1ccc(Nc2ncnc3ccc(-c4cnn(C5CCNCC5)c4)cc23)cc1Cl"
assayed_target = "Epidermal growth factor receptor (Homo sapiens)"
experimental_endpoint = "inhibition"
readout_value = "99%"


---

# Test system: A549;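 note: antiproliferative effect read out by MTT assay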
# assay-name: cells
# Format: functional, cell-based
# conditions: Homo sapiens, A549, 72 h
# Description: Antiproliferative activity against human A549 cells after 72 hrs by MTT assay
pIC50: −log10 of the molar value.
experimental-endpoint: pIC50

[[record]]
compound = "CC(Oc1nc(N)nc2ccc(-c3cnn(C4CCNCC4)c3)cc12)c1c(Cl)ccc(F)c1Cl (stereo not given)"
assayed_target = "A549"
comparative_sign = "="
readout_value = 5.02

[[record]]
compound = "Cn1cc(-c2ccc3ncnc(Nc4ccc5ncccc5c4)c3c2)cn1"
assayed_target = "A549"
comparative_sign = "="
readout_value = 5.86

[[record]]
compound = "CC(Nc1ncnc2ncc(-c3cnn(C)c3)cc12)c1ccncc1 (stereo not given)"
assayed_target = "A549"
comparative_sign = "<"
readout_value = 4.00

[[record]]
compound = "CC(Nc1nc(N)nc2ccc(-c3cnn(C)c3)cc12)c1c(Cl)ccc(F)c1Cl (stereo not given)"
assayed_target = "A549"
comparative_sign = "<"
readout_value = 4.00

[[record]]
compound = "COc1cccc(CNc2ncnc3ncc(-c4cnn(C)c4)cc23)c1"
assayed_target = "A549"
comparative_sign = "<"
readout_value = 4.00


These measurements were taken from ChEMBL document CHEMBL3826970.
